Origin of measurements: patent US8258098B2

test system: HL-60 cells; test: MTS assay Example 2, single agents and combinations; type: cell-based; details: Homo sapiens; HL-60, MTS; read-out: IC50 (Molar)
READOUT: IC50 (nM)
Write the value in nM as a bare number.

Return the recorded IC50 value; entry: COc1cc([C@@H]2c3cc4c(cc3[C@@H](O[C@@H]3O[C@@H]5CO[C@@H](C)O[C@H]5[C@H](O)[C@H]3O)[C@H]3COC(=O)[C@H]23)OCO4)cc(OC)c1O [VP16, etoposide]
2000

---

tested on: RAMOS cells; test: MTS assay Example 2, single agents and combinations; type: cell-based; conditions: Homo sapiens, read-out: IC50 (Molar)
READOUT: pIC50
Recall that pIC50 is obtained by taking minus log10 of the concentration measured in molar.

Provide the reported pIC50 (system: RAMOS cells) for COc1cc([C@@H]2c3cc4c(cc3[C@@H](O[C@@H]3O[C@@H]5CO[C@@H](C)O[C@H]5[C@H](O)[C@H]3O)[C@H]3COC(=O)[C@H]23)OCO4)cc(OC)c1O [VP16, etoposide]
6.96

---

Give pIC50 for every item shown.
System: MOLT3 cells
Assay: MTS cytotoxicity assay, 72 hours, single agents and combinations with Aplidine
Type: cell-based
Details: MOLT3, 72 hours drug exposure, read-out: IC50 (Molar)
Description: Day before plating cells all cultures were fed with fresh, complete growth media. On the harvest (plating) day cells were counted by Trypan Blue exclusion staining method (basic cell culture). […] Cells were treated with the drugs and the cytotoxic effect was measured by the MTS Assay (Tetrazolium), which is a colorimetric method for determining the number of viable cells. […] Optical densities were read at 490 nm on spectrophotometer plate reader. […]
Recall that pIC50 is obtained by taking minus log10 of the concentration measured in molar.

Return the recorded pIC50 value; entry: CCc1c2c(nc3ccc(O)cc13)-c1cc3c(c(=O)n1C2)COC(=O)[C@]3(O)CC [SN38, 7-ethyl-10-hydroxycamptothecin]
6.00

Return the recorded pIC50 value; entry: N.N.O=C([O-])C1(C(=O)[O-])CCC1.[Pt+2] [carboplatin]
5.40

Return the recorded pIC50 value; entry: N.N.[Cl][Pt][Cl] [cisplatin]
6.24

Return the recorded pIC50 value; entry: Nc1ccn([C@@H]2O[C@H](CO)[C@@H](O)[C@@H]2O)c(=O)n1 [AraC, cytosine arabinoside]
6.66

---

test system: U266B1 cell line; test: cells; type: cell-based; conditions: 72 h, read-out: IC50 (Molar)
READOUT: IC50 (nM)
Write the value in nM as a bare number.

Return the recorded IC50 value; entry: N[C@@H](Cc1ccc(N(CCCl)CCCl)cc1)C(=O)O
3.16
